Source of measurements: PubChem BioAssay (NCI)

- Test system: SF-295 CNS
- experimental_protocol: NCI-60 one-dose screen, 48 h (100 = growth as untreated, 0 = no growth, -100 = all killed)
- experimental_setup: 10 µM unless noted
- Method: Cells are grown in 96 well plates and exposed to the test compound for 48 hours. Compounds are tested at a single concentration, which is 10^-5 M for most compounds. The reported endpoint is percent growth (GI% or GIPRCNT), where numbers from 0 - 100% represent growth inhibition, and numbers from -100% - 0 represent cell death. For example, a value of 40 represents 60% growth inhibition. A value of 0 means no net growth occurred over the course of the experiment. […]
The panel holds about 83,000 compounds, 20% with a hit somewhere; the sample as a whole holds those more often. Activity calls are given as the source filed them. Rule for the calls: active = growth percent below 10; inactive = the rest.
readout_type: growth

Worked set:
Value of measured growth for the entry c1coc(CNc2c3ccccc3nc3ccccc23)c1 : 53.9% (inactive)

Value of measured growth for the entry O=S(=O)(Nc1ccc2ccccc2c1)N1CCCCC1 : 64% (inactive)

Value of measured growth for the entry C=C(C)[C@@H]1CC[C@]2(C(=O)O)CC[C@]3(C)[C@H](CC[C@@H]4[C@@]5(C)C[C@@H](CC#Cc6ccc(C(C)=O)s6)[C@H](O)C(C)(C)[C@@H]5CC[C@]43C)[C@@H]12 : 48.9% (inactive)

Value of measured growth for the entry C=C1C(=O)O[C@H]2[C@H]1CC/C(COC(=O)NCc1ccc(Cn3c(=O)sn(CCCl)c3=O)cc1)=C\CC[C@@]1(C)O[C@@H]21 : 107% (inactive)

Parameters: items (list). Returns: growth for each item.
1. COc1cc(/C=C\c2cc(/C=C\c3ccc(O)c(OC)c3)n(C(=O)Nc3ccc(C(F)(F)F)cc3)n2)ccc1O
2. CS(=O)(=O)c1ccc(C(=O)N/N=C/c2ccccc2O)cc1
3. CCCCCCCCCCCCCCCCCC1=NCCN1CCO
4. NC(N)=N/N=C/c1ccc(Cl)cc1

["83.4% (inactive)", "38% (inactive)", "90% (inactive)", "81.9% (inactive)"]

Parameters: items (list). Returns: growth for each item.
1. COC(=O)OC1C(O[C@H]2C[C@H]3[C@@H]4CC=C5C[C@@H](O)CC[C@]5(C)[C@H]4CC[C@]3(C)[C@H]2[C@H](C)C(=O)CCC(C)C)OCC(O)C1OC1OCC(O)C(O)C1OC(=O)c1ccc(OC)cc1 (some centres not stated)
2. O=C1C=CN2C(=O)CC=CC2[C@@H]1O (some centres not stated)
3. CCCCn1cnc2c(SCc3ccc([N+](=O)[O-])cc3)nc(N)nc21
4. COc1cc(C2CC(c3cccc(Nc4ccnc5cc(Cl)ccc45)c3)=NN2C=O)cc(OC)c1OC (configuration not stated)
5. C=C(C)[C@@H]1CC[C@]2(C(=O)NC(COC(=O)C(Cl)Cl)(COC(=O)C(Cl)Cl)COC(=O)C(Cl)Cl)CC[C@]3(C)[C@H](CC[C@@H]4[C@@]5(C)CC[C@H](OC(C)=O)C(C)(C)[C@@H]5CC[C@]43C)[C@@H]12
6. COc1ccc(-n2c(COc3ccc(F)cc3)n[nH]c2=S)cc1
7. COc1ccc(/C=C/c2nc3ccccc3c(=O)n2-c2ccc(C#Cc3ccc(C(C)(C)C)cc3)cc2C)c(OC)c1

-66.4% (active)
116% (inactive)
122% (inactive)
-11.6% (active)
60.9% (inactive)
74.1% (inactive)
101% (inactive)

Parameters: items (list). Returns: growth for each item.
1. Cc1cc(C#Cc2ccc(C(C)(C)C)cc2)ccc1-n1c(/C=C/c2c(Cl)cccc2Cl)nc2ccccc2c1=O
2. CCN(CC)c1ccc(/C=N/NC(=O)c2ccc(S(C)(=O)=O)cc2)c(O)c1
3. COC1(OC)C2(Cl)CCC1(Cl)C(Cl)=C2Cl
4. CCN1C(=O)N(CC)C2C1N=C(SC)N2/N=C/C=C/c1ccccc1OC (configuration not stated)
5. COc1ccc2nc3ccccc3c(NCc3ccc(Cl)cc3)c2c1
6. Fc1cc(-c2cnc3nonc3n2)c(Cl)cc1Cl
7. Nc1ncnc2c1N=C(c1ccc3c(c1)OCO3)CC(c1ccc(Cl)cc1)N2 (configuration not stated)

1. 97.9% (inactive)
2. 21.4% (inactive)
3. 105% (inactive)
4. 10.6% (inactive)
5. 25.8% (inactive)
6. 99.4% (inactive)
7. 93.4% (inactive)

Parameters: items (list). Returns: growth for each item.
1. O=C(/C=C/c1cn(-c2ccccc2)nc1-c1ccccc1)OCc1cn(-c2cccc([N+](=O)[O-])c2)nn1
2. CCOC(=O)c1cc(N)nc2ccccc12
3. C#CCO[C@H]1CC[C@H](OCC#C)[C@@H]2[C@H]1[C@H]1C[C@@H]3[C@@]4(C)CCC[C@@](C)(C(=O)OC)[C@@H]4CC[C@@]23C=C1C(C)C
4. COC(=O)c1ccc2c(c1)nc(-c1cc3ccccc3[nH]c1=O)n2-c1cc(C(C)(C)C)[nH]n1
5. N=C(N)c1ccc(-c2ccc(-c3ccco3)o2)cc1F
6. c1cc2c(cc1-c1cnc3nonc3n1)OCO2
7. ClC1=NC(Cl)C(Cl)=N/C1=N\c1ncn[nH]1 (configuration not stated)
8. CCCCc1nc(Cl)c(C2CC(c3ccc(S(N)(=O)=O)cc3)=NN2c2ccc(C#N)cc2)[nH]1 (configuration not stated)

1. 97.8% (inactive)
2. 100% (inactive)
3. 92.7% (inactive)
4. 93.8% (inactive)
5. -27% (active)
6. 101% (inactive)
7. 101% (inactive)
8. 97.9% (inactive)

Parameters: items (list). Returns: growth for each item.
1. O=C(Nc1ccncc1)C(=O)c1cn(S(=O)(=O)c2cccc(Cl)c2F)c2ccccc12
2. Clc1ccc(-c2nc(-c3cccs3)no2)cc1
3. CC[C@]1(O)C[C@H]2CN(CCc3c([nH]c4ccccc34)C(C(=O)OC)(c3cc4c(cc3OC)N(C)[C@H]3[C@@](O)(C(=O)OC)[C@H](OC(C)=O)[C@]5(CC)[C@@H]6C[C@@H]6CN6CC[C@]43[C@@H]65)C2)C1 (some centres not stated)
4. CCN1C(=O)N(CC)C2C1NN=c1s/c(=C\c3ccco3)c(=O)n12 (configuration not stated)
5. COc1cc2c(c(OC)c1O)C(=O)C(OC)C(c1ccc(O)c(O)c1)O2 (configuration not stated)
6. CC(C)[C@@H]1C=C2CC[C@H]3[C@](C)(CN)CCC[C@]3(C)[C@H]2CC1
7. CNC(=O)c1c(NC(=O)c2cccc(C(F)(F)F)c2)sc2c1CCC(=O)C2

67.9% (inactive)
108% (inactive)
-15.1% (active)
8.2% (active)
-6.27% (active)
54.8% (inactive)
-10.4% (active)
